- measurement_target: PDE5A1 (Homo sapiens)
- Construct: purchased SB Drug Discovery (Scotland, U.K.); host or cells: baculoviral system
- test_description: PDE5A1 radiometric enzyme inhibition assay
- Format: biochemical
- measurement_parameters: compound at 1 µM; read-out: Inhibition of PDE Sub-Types (%) 5A1
inhibition at 1 µM by entry:
Hi! Could you send only the number? It should be in %, unit omitted.

Field: example entries. Status: answers known.
compound: COc1ccc(F)c(-c2nc(C)c3nnc4ccc(-c5ccnc(F)c5)cc4n23)c1
inhibition at 1 µM (%): 13.6
//
compound: COc1ccc(Cl)c(-c2nc(C)c3nnc4ccc(-c5cncc(F)c5)cc4n23)c1
inhibition at 1 µM (%): 25.1
//
compound: COc1ccc(Cl)c(-c2nc(C)c3nnc4ccc(-c5ccnc(F)c5)cc4n23)c1
inhibition at 1 µM (%): 29.3
//
compound: COc1ccc(F)c(-c2nc(C)c3nnc4ccc(-c5ccncc5)cc4n23)c1
inhibition at 1 µM (%): 57.7
//
compound: COc1ccc(F)c(-c2nc(C)c3nnc4ccc(-c5cccnc5)cc4n23)c1
inhibition at 1 µM (%): 36.2

Here is another compound to look at.
In: Specify measured inhibition at 1 µM for CCCCOc1ccc(F)c(-c2nc(C)c3nnc4ccc(OC)nc4n23)c1 [TA1, reference compound] .
Out: 3.08

----------
- measurement_target: PDE10A1 (Homo sapiens)
- Sequence (Q9Y233 1-779 isoform Q9Y233-1): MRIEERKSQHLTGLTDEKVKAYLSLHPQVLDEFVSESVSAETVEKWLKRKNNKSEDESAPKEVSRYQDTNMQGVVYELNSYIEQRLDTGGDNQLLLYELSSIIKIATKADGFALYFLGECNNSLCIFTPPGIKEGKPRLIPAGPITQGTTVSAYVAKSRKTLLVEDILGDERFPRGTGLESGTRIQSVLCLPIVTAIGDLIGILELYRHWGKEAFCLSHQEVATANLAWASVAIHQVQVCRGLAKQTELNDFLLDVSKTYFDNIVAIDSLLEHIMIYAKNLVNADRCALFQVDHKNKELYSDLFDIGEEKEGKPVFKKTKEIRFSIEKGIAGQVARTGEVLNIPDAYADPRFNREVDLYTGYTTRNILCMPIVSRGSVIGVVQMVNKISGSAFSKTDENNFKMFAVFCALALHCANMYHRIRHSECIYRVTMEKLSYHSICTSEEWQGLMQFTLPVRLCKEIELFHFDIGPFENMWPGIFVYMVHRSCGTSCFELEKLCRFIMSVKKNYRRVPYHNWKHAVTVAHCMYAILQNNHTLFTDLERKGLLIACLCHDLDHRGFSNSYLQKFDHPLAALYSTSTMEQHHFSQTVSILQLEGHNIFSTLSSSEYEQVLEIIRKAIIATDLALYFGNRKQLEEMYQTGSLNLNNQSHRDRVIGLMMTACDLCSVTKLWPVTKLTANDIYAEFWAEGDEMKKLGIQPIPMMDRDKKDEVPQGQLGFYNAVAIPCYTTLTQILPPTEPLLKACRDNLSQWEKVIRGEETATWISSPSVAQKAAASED
- test_description: PDE10A1 radiometric enzyme inhibition assay
- measurement_parameters: compound at 1 µM
quantity_measured: Inhibition of PDE Sub-Types (%) 10A1
API: value field is a number in %; no unit string.

Record excerpt, results attached:
compound: COc1ccc(F)c(-c2nc(C)c3nnc4ccc(-c5ccnc(F)c5)cc4n23)c1 [BIT6]
units: %
Inhibition of PDE Sub-Types (%) 10A1: 74.0

compound: COc1ccc(Cl)c(-c2nc(C)c3nnc4ccc(-c5cccnc5F)cc4n23)c1 [BIT5]
units: %
Inhibition of PDE Sub-Types (%) 10A1: 22.1

compound: COc1ccc(F)c(-c2nc(C)c3nnc4ccc(-c5cccnc5)cc4n23)c1 [BIT8]
units: %
Inhibition of PDE Sub-Types (%) 10A1: 55.5

compound: COc1ccc(Cl)c(-c2nc(C)c3nnc4ccc(-c5ccc(F)nc5)cc4n23)c1 [BIT4]
units: %
Inhibition of PDE Sub-Types (%) 10A1: 10.8

compound: Cc1nc(-c2cc(OCC3(C)COC3)ccc2Cl)n2c1nnc1ccc(-c3ccnc(F)c3)cc12 [BIT3]
units: %
Inhibition of PDE Sub-Types (%) 10A1: 28.2

compound: Cc1nc(-c2cc(OCC3(C)COC3)ccc2Cl)n2c1nnc1ccc(-c3ccc(F)nc3)cc12 [BIT2]
units: %
Inhibition of PDE Sub-Types (%) 10A1: 2.46

In: Return value of Inhibition of PDE Sub-Types (%) 10A1 for input COc1ccc(Cl)c(-c2nc(C)c3nnc4ccc(-c5cncc(F)c5)cc4n23)c1 [BIT7] , no commentary.
Out: 87.0

In: In one line, give reported Inhibition of PDE Sub-Types (%) 10A1 of the entry COc1ccc(F)c(-c2nc(C)c3nnc4ccc(-c5ccncc5)cc4n23)c1 [BIT9] .
Out: 96.6

----------
Quick reference: inhibition at 1 µM of the listed items.
- measurement_target: PDE9A1 (Homo sapiens, UniProt O76083)
- Construct: purchased SB Drug Discovery (Scotland, U.K.); host or cells: baculoviral system
- Sequence (O76083 whole entry): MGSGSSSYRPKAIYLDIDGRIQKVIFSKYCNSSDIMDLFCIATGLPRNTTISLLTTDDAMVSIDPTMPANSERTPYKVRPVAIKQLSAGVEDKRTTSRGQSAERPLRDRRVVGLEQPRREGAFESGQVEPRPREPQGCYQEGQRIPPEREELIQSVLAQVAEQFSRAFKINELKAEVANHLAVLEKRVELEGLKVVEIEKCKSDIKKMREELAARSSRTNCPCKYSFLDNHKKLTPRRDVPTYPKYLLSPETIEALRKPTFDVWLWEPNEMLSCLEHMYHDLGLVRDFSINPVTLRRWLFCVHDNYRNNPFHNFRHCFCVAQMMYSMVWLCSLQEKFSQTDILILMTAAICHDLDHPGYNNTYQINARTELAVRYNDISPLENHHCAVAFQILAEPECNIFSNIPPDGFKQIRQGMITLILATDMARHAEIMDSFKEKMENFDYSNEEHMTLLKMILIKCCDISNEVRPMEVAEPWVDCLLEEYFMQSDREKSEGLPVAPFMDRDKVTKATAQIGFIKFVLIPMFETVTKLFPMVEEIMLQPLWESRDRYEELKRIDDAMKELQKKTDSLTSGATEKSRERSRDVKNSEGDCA
- test_description: PDE9A1 radiometric enzyme inhibition assay
- Format: biochemical
- measurement_parameters: compound at 1 µM; read-out: Inhibition of PDE Sub-Types (%) 9A1

Some solved cases for reference:
compound: COc1ccc(Cl)c(-c2nc(C)c3nnc4ccc(-c5ccc(F)nc5)cc4n23)c1
quantity_measured: inhibition at 1 µM
observed_value: < 0%
//
compound: CCCCOc1ccc(F)c(-c2nc(C)c3nnc4ccc(OC)nc4n23)c1 [TA1, reference compound]
quantity_measured: inhibition at 1 µM
observed_value: < 0%
//
compound: COc1ccc(F)c(-c2nc(C)c3nnc4ccc(-c5ccncc5)cc4n23)c1
quantity_measured: inhibition at 1 µM
observed_value: 17.5%
//
compound: COc1ccc(F)c(-c2nc(C)c3nnc4ccc(-c5cccnc5)cc4n23)c1
quantity_measured: inhibition at 1 µM
observed_value: < 0%
//
compound: Cc1nc(-c2cc(OCC3(C)COC3)ccc2Cl)n2c1nnc1ccc(-c3ccnc(F)c3)cc12
quantity_measured: inhibition at 1 µM
observed_value: < 0%

In: Consider the compound Cc1nc(-c2cc(OCC3(C)COC3)ccc2Cl)n2c1nnc1ccc(-c3ccc(F)nc3)cc12 and give its recorded inhibition at 1 µM.
Out: < 0%

In: Give reported inhibition at 1 µM value for COc1ccc(Cl)c(-c2nc(C)c3nnc4ccc(-c5cccnc5F)cc4n23)c1
Out: < 0%

In: Name the recorded inhibition at 1 µM of the item COc1ccc(Cl)c(-c2nc(C)c3nnc4ccc(-c5cncc(F)c5)cc4n23)c1 in your answer.
Out: 11.5%

In: Kindly indicate its recorded inhibition at 1 µM. Item: COc1ccc(Cl)c(-c2nc(C)c3nnc4ccc(-c5ccnc(F)c5)cc4n23)c1
Out: < 0%

In: Return inhibition at 1 µM for the following compound: COc1ccc(F)c(-c2nc(C)c3nnc4ccc(-c5ccnc(F)c5)cc4n23)c1
Out: 28.4%
